Source of measurements: paper PMC9231160

- Measurement protocol: DPPH radical scavenging assay
- Measurement context: mean ± SD (n = 3), NA = no activity

Molecule	Lt gt eq	IC50 (µM)
C=CC(C)(CCC=C(C)C)O[C@@H]1O[C@H](COC(=O)/C=C/c2ccc(O)cc2)[C@@H](O)[C@H](O[C@@H]2O[C@@H](C)[C@H](O)[C@@H](O)[C@H]2O)[C@H]1O (mixture of isomers)	>	250
C=CC(C)(CCC=C(C)C)O[C@@H]1O[C@H](CO)[C@@H](OC(=O)/C=C/c2ccc(O)c(O)c2)[C@H](O[C@@H]2O[C@@H](C)[C@H](O)[C@@H](O)[C@H]2O)[C@H]1O (mixture of isomers)	=	19.7
O=C1O[C@H]([C@@H](O)CO)C(O)=C1O [L-(+)-ascorbic acid, reference compound]	=	13.7

###

# IC50 per record follows
- System tested: fatty acid synthase (FAS) (Gallus gallus, UniProt P12276)
- Construct: isolated from chicken liver and kept in ice-bath
- Sequence (P12276 whole entry): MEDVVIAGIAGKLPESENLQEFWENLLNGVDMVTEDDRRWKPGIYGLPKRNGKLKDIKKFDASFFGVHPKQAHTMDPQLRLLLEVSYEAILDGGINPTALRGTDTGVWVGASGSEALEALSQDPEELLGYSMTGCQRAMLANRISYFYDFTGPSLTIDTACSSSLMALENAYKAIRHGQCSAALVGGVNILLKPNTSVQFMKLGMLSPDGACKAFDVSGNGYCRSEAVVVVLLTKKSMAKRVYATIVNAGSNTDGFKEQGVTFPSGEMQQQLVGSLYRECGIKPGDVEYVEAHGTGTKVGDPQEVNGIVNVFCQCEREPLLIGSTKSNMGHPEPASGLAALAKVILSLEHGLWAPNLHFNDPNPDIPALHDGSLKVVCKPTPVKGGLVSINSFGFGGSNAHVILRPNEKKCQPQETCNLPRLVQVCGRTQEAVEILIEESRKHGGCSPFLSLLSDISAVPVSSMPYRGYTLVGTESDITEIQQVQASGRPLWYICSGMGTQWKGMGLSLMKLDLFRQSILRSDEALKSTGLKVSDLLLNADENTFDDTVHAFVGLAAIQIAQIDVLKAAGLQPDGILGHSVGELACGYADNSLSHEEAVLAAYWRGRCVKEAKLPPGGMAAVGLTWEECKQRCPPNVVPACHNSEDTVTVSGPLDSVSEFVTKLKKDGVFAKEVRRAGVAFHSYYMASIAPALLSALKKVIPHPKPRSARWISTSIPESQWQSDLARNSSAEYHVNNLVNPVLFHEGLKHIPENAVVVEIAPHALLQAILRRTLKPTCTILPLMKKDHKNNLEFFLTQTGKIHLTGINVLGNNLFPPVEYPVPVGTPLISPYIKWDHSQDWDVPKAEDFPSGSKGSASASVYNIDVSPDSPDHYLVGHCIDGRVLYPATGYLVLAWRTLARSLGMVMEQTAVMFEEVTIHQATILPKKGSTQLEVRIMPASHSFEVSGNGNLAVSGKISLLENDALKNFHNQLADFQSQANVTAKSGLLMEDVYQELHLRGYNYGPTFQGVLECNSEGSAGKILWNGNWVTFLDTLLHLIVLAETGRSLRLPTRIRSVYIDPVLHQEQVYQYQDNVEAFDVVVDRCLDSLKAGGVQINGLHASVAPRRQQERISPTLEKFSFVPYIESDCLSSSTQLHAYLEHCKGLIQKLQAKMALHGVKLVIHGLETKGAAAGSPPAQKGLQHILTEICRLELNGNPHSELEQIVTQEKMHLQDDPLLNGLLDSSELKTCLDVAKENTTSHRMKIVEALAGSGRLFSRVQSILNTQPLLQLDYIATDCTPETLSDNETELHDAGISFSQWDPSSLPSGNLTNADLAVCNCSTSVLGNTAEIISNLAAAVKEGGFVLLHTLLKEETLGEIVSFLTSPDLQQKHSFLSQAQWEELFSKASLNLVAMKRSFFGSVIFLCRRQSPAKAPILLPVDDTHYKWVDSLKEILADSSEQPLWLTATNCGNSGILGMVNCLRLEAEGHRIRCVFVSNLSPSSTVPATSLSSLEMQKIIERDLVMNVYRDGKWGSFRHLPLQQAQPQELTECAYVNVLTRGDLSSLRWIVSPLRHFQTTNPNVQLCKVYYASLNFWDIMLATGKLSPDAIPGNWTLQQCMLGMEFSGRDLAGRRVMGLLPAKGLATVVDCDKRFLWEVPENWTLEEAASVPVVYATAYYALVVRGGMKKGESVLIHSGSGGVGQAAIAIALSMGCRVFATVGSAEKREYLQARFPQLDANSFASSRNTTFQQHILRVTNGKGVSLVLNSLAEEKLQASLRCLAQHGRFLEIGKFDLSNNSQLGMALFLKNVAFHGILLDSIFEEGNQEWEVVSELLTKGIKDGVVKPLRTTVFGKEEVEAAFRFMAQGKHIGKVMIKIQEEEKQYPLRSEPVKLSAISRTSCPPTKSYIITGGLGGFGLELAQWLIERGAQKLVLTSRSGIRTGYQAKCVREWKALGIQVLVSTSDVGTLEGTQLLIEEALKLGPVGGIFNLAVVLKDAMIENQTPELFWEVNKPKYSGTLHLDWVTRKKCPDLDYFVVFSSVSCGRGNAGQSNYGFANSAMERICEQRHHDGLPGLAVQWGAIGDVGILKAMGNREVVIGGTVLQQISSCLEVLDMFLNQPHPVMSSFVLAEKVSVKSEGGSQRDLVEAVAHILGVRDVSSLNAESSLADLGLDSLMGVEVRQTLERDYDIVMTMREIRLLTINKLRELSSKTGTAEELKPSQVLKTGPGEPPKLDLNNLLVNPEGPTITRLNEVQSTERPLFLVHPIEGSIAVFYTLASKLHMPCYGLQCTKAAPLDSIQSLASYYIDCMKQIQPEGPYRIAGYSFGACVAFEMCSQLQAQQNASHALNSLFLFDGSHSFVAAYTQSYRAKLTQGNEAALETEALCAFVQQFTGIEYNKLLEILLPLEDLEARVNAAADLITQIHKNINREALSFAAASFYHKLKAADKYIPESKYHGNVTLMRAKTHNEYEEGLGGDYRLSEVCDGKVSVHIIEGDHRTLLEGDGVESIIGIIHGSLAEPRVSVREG
- Measurement protocol: FAS inhibitory activity
- Measurement context: FAS isolated from chicken liver; mean ± SD (n = 3); NA = no activity
Endpoint: IC50 (µM)

Compound	System tested	Lt gt eq	Assay result
C=CC(C)(CCC=C(C)C)O[C@@H]1O[C@H](CO)[C@@H](OC(=O)/C=C/c2ccc(O)cc2)[C@H](O[C@@H]2O[C@@H](C)[C@H](O[C@@H]3O[C@@H](C)[C@H](O)[C@@H](O)[C@H]3O)[C@@H](O)[C@H]2O)[C@H]1O (stereo partly shown)	fatty acid synthase (FAS) (Gallus gallus, UniProt P12276)	=	4.78
C=CC(C)(CCC=C(C)C)O[C@@H]1O[C@H](CO)[C@@H](OC(=O)/C=C\c2ccc(O)cc2)[C@H](O[C@@H]2O[C@@H](C)[C@H](O[C@@H]3O[C@@H](C)[C@H](O)[C@@H](O)[C@H]3O)[C@@H](O)[C@H]2O)[C@H]1O (stereo partly shown)	fatty acid synthase (FAS) (Gallus gallus, UniProt P12276)	>	100
C=CC(C)(CCC(O)C(C)(C)O)OC1OC(COC(=O)C=Cc2ccc(O)cc2)C(O)C(OC2OC(C)C(O)C(O)C2O)C1O (stereo not shown)	fatty acid synthase (FAS) (Gallus gallus, UniProt P12276)	>	100
C=CC(C)(CCC=C(C)C)O[C@@H]1O[C@H](COC(=O)/C=C/c2ccc(O)cc2)[C@@H](O)[C@H](O[C@@H]2O[C@@H](C)[C@H](O)[C@@H](O)[C@H]2O)[C@H]1O (mixture of isomers)	fatty acid synthase (FAS) (Gallus gallus, UniProt P12276)	=	2.36
